Target: human KDR enzyme (Homo sapiens, UniProt P35968)
Construct: The cytoplasmic domain of human KDR enzyme is cloned in the form of a GST fusion; GST; made in house; host or cells: SF21 insect cells (baculovirus, pFastBac)
Sequence (P35968 786-1356 limits assumed): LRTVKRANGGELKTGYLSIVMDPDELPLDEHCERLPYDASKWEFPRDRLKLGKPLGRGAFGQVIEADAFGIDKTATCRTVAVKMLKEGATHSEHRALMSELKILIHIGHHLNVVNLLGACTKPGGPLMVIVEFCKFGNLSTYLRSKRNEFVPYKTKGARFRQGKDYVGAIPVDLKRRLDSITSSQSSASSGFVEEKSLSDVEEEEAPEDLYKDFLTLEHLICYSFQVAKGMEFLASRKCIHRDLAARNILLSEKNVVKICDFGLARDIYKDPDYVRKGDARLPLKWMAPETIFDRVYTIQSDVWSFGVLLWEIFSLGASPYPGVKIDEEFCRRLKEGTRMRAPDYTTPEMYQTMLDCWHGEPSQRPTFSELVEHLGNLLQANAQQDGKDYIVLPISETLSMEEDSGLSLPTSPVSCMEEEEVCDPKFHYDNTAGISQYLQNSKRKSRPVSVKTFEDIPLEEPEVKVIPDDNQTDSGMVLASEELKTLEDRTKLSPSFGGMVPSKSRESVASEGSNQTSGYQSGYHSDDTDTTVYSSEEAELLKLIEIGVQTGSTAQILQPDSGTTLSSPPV
Test: Phosphorylation of the substrate PLCγ by the enzyme KDR in vitro (flashplate technique)
Type: biochemical
Settings: Table VII, degrees of activity by IC50 range; read-out: Activity
pIC50: −log10 of the molar value.
Please provide measured pIC50 for the entries that follow.

Before answering, review these 5 worked examples.
{"given-smiles": "O=C(O)CCc1ccc(-c2ccc3nc(-c4[nH]nc5ccccc45)[nH]c3c2)cc1", "pIC50": "< 5.52"}
{"given-smiles": "O=C(NCc1cccc2ccccc12)c1cccc2nc(-c3n[nH]c4ccccc34)[nH]c12", "pIC50": "< 5.52"}
{"given-smiles": "CC(=O)c1ccc(-c2ccc3nc(-c4[nH]nc5ccccc45)[nH]c3c2)s1", "pIC50": "5.52 to 6.52"}
{"given-smiles": "CC(C)OCCCNC(=O)c1ccc2[nH]c(-c3n[nH]c4ccccc34)nc2c1", "pIC50": "5.52 to 6.52"}
{"given-smiles": "Fc1cc(-c2ccc3nc(-c4[nH]nc5ccccc45)[nH]c3c2)ccc1-c1ccccc1", "pIC50": "< 5.52"}

For the 4 compounds below, give their pIC50 values.
1. CC(C)(C)C(=O)Oc1cc(-c2nc3ccccc3[nH]2)[nH]n1
2. O=C(NCC1CCOCC1)c1ccc2[nH]c(-c3n[nH]c4ccccc34)nc2c1
3. O=C(NCc1ccc(-c2ccccn2)s1)c1ccc2[nH]c(-c3n[nH]c4ccccc34)nc2c1
4. O=C(NCc1ccc([N+](=O)[O-])cc1)c1cccc2nc(-c3n[nH]c4ccccc34)[nH]c12

1: < 5.52; 2: 5.52 to 6.52; 3: 5.52 to 6.52; 4: < 5.52

For the 7 compounds below, give their pIC50 values.
1. O=C(COc1cc(-c2nc3ccccc3[nH]2)[nH]n1)c1ccc(OC(F)(F)F)cc1
2. O=C(NCc1ccccc1[N+](=O)[O-])c1cccc2nc(-c3n[nH]c4ccccc34)[nH]c12
3. O=C(NCCCn1ccnc1)c1ccc2[nH]c(-c3n[nH]c4ccccc34)nc2c1
4. FC(F)(F)Oc1cccc(-c2ccc3nc(-c4[nH]nc5ccccc45)[nH]c3c2)c1
5. CCCC/C=C/c1ccc2nc(-c3[nH]nc4ccccc34)[nH]c2c1
6. c1ccc(-c2ccc(-c3ccc4nc(-c5[nH]nc6ccccc56)[nH]c4c3)cc2)cc1
7. CN(C)c1ccc(CNC(=O)c2ccc3[nH]c(-c4n[nH]c5ccccc45)nc3c2)cc1

< 5.52
5.52 to 6.52
5.52 to 6.52
< 5.52
5.52 to 6.52
< 5.52
5.52 to 6.52

Please report the recorded pIC50 for Fc1ccc(-c2ccc3nc(-c4[nH]nc5ccccc45)[nH]c3c2)cc1Cl . 5.52 to 6.52
